Measure: melting point

CCOc1ccc(C2(c3cccc(-c4cncnc4)c3)N=C(N)N(C)C2=O)cc1OCC (stereo not shown) [Example 44] = 100 to 105 °C
CCCNC1=NC(c2cccc(-c3cncnc3)c2)(c2ccc(OCCC)c(C)c2)C(=O)N1C (stereo not shown) = 64 to 66 °C
CN1C(=O)C(c2ccc(OC(F)(F)F)cc2)(c2ccc(F)c(-c3cncc(F)c3)c2)N=C1N (stereo not shown) [Example 47] = 216 to 218 °C
CCOc1ccc(C2(c3ccc(F)c(-c4cccnc4)c3)N=C(N)N(C)C2=O)cc1OCC (stereo not shown) [Example 99] = 93 to 95 °C
CCOc1ccc(C2(c3ccc(F)c(-c4cccnc4)c3)N=C(N)N(C)C2=O)cc1OCC (stereo not shown) [Example 27] = 99 to 100 °C

# input compound: CN1C(=O)C(c2ccc(OC(F)(F)F)cc2)(c2ccc(F)c(-c3cccnc3)c2)N=C1N (stereo not shown) [Example 50] ; wanted: its melting point
134 °C

# input compound: CCOc1ccc(C2(c3ccc(F)c(-c4cncnc4)c3)N=C(N)N(C)C2=O)cc1OCC (stereo not shown) [Example 86] ; wanted: its melting point
95 to 98 °C

# input compound: CN1C(=S)C(c2ccc(OC(F)(F)F)cc2)(c2cccc(-c3cccnc3F)c2)N=C1N (stereo not shown) [Example 145] ; wanted: its melting point
89 to 99 °C

# input compound: CN1C(=O)C(c2ccc(OC(F)(F)F)cc2)(c2ccc(F)c(-c3cncc(Cl)c3)c2)N=C1N (stereo not shown) [Example 46] ; wanted: its melting point
241 to 243 °C

# input compound: Cc1cc(C2(c3cccc(-c4cncnc4)c3)N=C(N)N(C)C2=O)ccc1OCc1ccccc1 (stereo not shown) [Example 114] ; wanted: its melting point
107 to 109 °C

###

molecular target: human BACE1 (Homo sapiens, UniProt P56817); experiment: Fluorescent kinetic assay, inhibition of BACE1 (WABC-6 peptide substrate); assay type: biochemical; settings: 10 nM enzyme, 25 μM substrate WABC-6, pH 4.5, room temperature; read-out: IC50 (μM) BACE1;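 further: fluorescence monitored at 320 nm excitation and 420 nm emission every 40 s over 30 min, with the substrate cleavage rate taken from the linear slope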
Sequence (P56817 46-501): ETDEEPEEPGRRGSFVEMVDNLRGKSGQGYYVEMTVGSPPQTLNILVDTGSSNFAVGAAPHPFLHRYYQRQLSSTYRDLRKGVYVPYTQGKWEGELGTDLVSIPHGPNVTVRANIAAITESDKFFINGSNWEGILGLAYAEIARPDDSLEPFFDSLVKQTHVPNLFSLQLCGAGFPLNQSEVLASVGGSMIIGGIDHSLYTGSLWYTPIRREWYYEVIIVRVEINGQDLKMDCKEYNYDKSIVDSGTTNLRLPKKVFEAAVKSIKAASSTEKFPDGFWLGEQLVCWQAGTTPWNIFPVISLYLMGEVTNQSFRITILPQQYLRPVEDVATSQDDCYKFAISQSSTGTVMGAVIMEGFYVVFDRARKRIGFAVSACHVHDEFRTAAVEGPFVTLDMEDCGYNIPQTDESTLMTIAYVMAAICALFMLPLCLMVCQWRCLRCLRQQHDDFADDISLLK
Measure: IC50

Before answering, review these 2 worked examples.
COc1ncccc1-c1cc(C2(c3ccc(OC(F)(F)F)cc3)N=C(N)N(C)C2=O)ccc1F (centres unmarked) [Example 72] = 0.11 to 1 µM
CN1C(=O)C(c2ccc(OCCF)cc2)(c2cccc(-c3cncc(F)c3)c2)N=C1N (centres unmarked) [Example 110] = 0.01 to 0.1 µM

# input compound: CN1C(=O)[C@@](c2ccc(OC(F)F)cc2)(c2ccc(F)c(-c3cccnc3F)c2)N=C1N [Example 133B] ; wanted: its IC50
0.01 to 0.1 µM

# input compound: CN1C(=O)[C@@](c2ccc(OC(F)F)cc2)(c2cccc(-c3cc(F)cnc3F)c2)N=C1N [Example 137B] ; wanted: its IC50
0.01 to 0.1 µM

# input compound: CN1C(=O)C(c2ccc(OC(F)F)cc2)(c2ccc(F)c(-c3ccc(F)nc3)c2)N=C1N (centres unmarked) [Example 88] ; wanted: its IC50
0.01 to 0.1 µM

###

# melting point per entry

CN1C(=O)C(c2ccc(OCCF)c(OCCF)c2)(c2ccc(F)c(-c3cccnc3F)c2)N=C1N (stereo not shown) [Example 104] = 85 to 95 °C
CCOc1ccc(C2(c3cccc(-c4cncnc4)c3)N=C(N)N(C)C2=O)cc1C (stereo not shown) [Example 120] = 106 to 108 °C
Cc1cc(C2(c3ccc(F)c(-c4cccnc4F)c3)N=C(N)N(C)C2=O)ccc1OCCF (stereo not shown) [Example 112] = 105 to 106 °C

With those in mind, consider the next molecule.
# input molecule: CN1C(=O)C(c2ccc(OC(F)(F)F)c(Cl)c2)(c2ccc(F)c(-c3cccnc3)c2)N=C1N (stereo not shown) [Example 28] ; wanted: its melting point
99 to 102 °C
